Data provenance is PubChem BioAssay AID1159580.

test-details: chemical genetic growth profiling, strain panel (AID 1159580);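 also: tested at 20 µM; growth read once vehicle control cultures reached saturation at 30 °C; lower values mean less growth of the strain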
measurement-context: S. cerevisiae deletion strains, growth OD, locus YHR013C, strain ard1
The campaign covered roughly 5,500 compounds. About 2,000 (36%) were called active. Roughly 18% stayed inconclusive and do not appear here. Rule as the data show it: active = normalized growth mostly below about 0.91 (no sharp cut-off); inconclusive = no clear call, values can overlap the other calls; inactive = mostly above about 0.92. This is one part of the list.
Classes used: active, inactive

# compound, label
measured = [
    ("Cc1cc(C)cc(OCC2CNC(=O)O2)c1 (stereo not drawn)", "inactive"),
    ("CC[C@H](CCC(C)[C@H]1CCC2C3CCC4C[C@@H](O)CC[C@]4(C)C3CC[C@@]21C)C(C)C (stereo partly drawn)", "inactive"),
    ("O=[N+]([O-])c1cccc2c(Br)[nH]nc12", "inactive"),
    ("N[C@H](Cc1ccccc1)C(=O)O", "inactive"),
    ("C=C1C2CC[C@@]3(C)[C@H](c4ccoc4)OC(=O)C[C@]13O[C@H]1CC(=O)C(C)(C)C(CC(=O)OC)[C@@]21C (stereo partly drawn)", "inactive"),
    ("CC(CCC(=O)O)[C@H]1CCC2C3CC[C@@H]4C[C@H](O)CC[C@]4(C)C3CC[C@@]21C (stereo partly drawn)", "inactive"),
    ("CC(CCC(=O)O)[C@H]1CCC2C3CC[C@@H]4C[C@H](O)CC[C@]4(C)C3C[C@H](O)[C@@]21C (stereo partly drawn)", "inactive"),
    ("CCCCC[C@H](CC(=O)NO)C(=O)N[C@H](C(=O)N1CCC[C@H]1CO)C(C)C", "inactive"),
    ("C=C1C2CCC3(C)C(c4ccoc4)OC(=O)CC13OC1CC(OC(C)=O)C(C)(C)C(CC(=O)OC)C12C (stereo not drawn)", "inactive"),
    ("COc1ccc(C(=O)CC(=O)c2ccc(C(C)(C)C)cc2)cc1", "inactive"),
    ("CC(CCC(=O)O)[C@H]1CCC2C3CC[C@@H]4CCCC[C@]4(C)C3CC[C@@]21C (stereo partly drawn)", "inactive"),
    ("CN(C(=O)CN(CCO)CC(=O)N(C)C(C)(C)Cc1ccccc1)C(C)(C)Cc1ccccc1", "inactive"),
    ("CC(C)CCCC(C)C1CCC2C3CC[C@H]4CCCC[C@]4(C)C3CC[C@]12C (stereo partly drawn)", "inactive"),
    ("C=C1C2=CC(=O)O[C@@H](c3ccoc3)[C@]2(C)CCC1[C@@]1(C)C=CC(=O)C(C)(C)[C@@H]1CC(=O)OC (stereo partly drawn)", "inactive"),
    ("C[C@H](CCC(=O)O)[C@H]1CCC2C3C(CC[C@@]21C)[C@@]1(C)CC[C@@H](O)C[C@H]1C[C@@H]3O (stereo partly drawn)", "inactive"),
    ("O=c1[nH]cnc2[nH]ncc12", "inactive"),
    ("COC(=O)CCC(C)C1CCC2C3CC[C@@H]4C[C@H](O)CC[C@]4(C)C3C[C@H](O)[C@]12C (stereo partly drawn)", "active"),
    ("C=Cc1c(C)c2[n-]c1=Cc1[n-]c(c(CC)c1C)C=c1[n-]c3c(c1C)C(=O)C(C(=O)[O-])C=3c1[n-]c(c(C)c1CCC(=O)[O-])C=2.[Cu] (stereo not drawn)", "active"),
]
